protocolDescription: Toxicity liver stage against HepG2, at 10uM
Format: cell-based
Design: test concentration 10 uM, cell line HepG2-A16-CD81EGFP
measurementConditions: human, HepG2-A16-CD81EGFP cells; read-out: INHIBITION
This listing pairs compounds with measured cytotoxicity at 10 µM.
valueType: cytotoxicity at 10 µM (%)

{"columns": ["compound", "valueType", "readingUnit", "obsValue"],
 "data": [
  ["Cc1cnn(CC2CCCN2CC(=O)Nc2nc(C)cs2)c1 (configuration not stated)", "cytotoxicity at 10 µM", "%", -6.26],
  ["O=C(NCCC1CN(Cc2c[nH]cn2)CCO1)Nc1ccccc1 (configuration not stated)", "cytotoxicity at 10 µM", "%", -1.92],
  ["COc1ccc(OC)c(C(C)NC(=O)Nc2nnc(C)s2)c1 (configuration not stated)", "cytotoxicity at 10 µM", "%", 14.7],
  ["CS(=O)(=O)NC[C@]12COC[C@H]1CN(C(=O)CCc1ccccc1)C2", "cytotoxicity at 10 µM", "%", -1.23],
  ["CN(Cc1ccc(O)cc1)C(=O)NC1CCCN(c2ncccn2)C1 (configuration not stated)", "cytotoxicity at 10 µM", "%", -9.63],
  ["COC(=O)C(c1cc(F)ccc1F)N(C)C(=O)c1csnn1 (configuration not stated)", "cytotoxicity at 10 µM", "%", 0.144],
  ["Cc1csc(C2(NC(=O)NCCN3CCOCC3)CCC2)n1", "cytotoxicity at 10 µM", "%", -0.746]
]}
